Entry source: the supplement of paper PMC5844555

System: MYT1L
assay-procedure: 3' UTR reporter interaction score (median-centred robust z-score of log2 firefly/Renilla activity); higher = less repression of the 3' UTR reporter
test-parameters: HEK293T; 48 h
3' UTR reporter interaction score below 0.1 gives Not fulfilled; 3' UTR reporter interaction score at or above it gives Fulfilled.

1) UUGGCCACAAUGGGUUAGAAC	Fulfilled
2) CUCUAGAGGGAAGCACUUUCU	Not fulfilled
3) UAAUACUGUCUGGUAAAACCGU	Fulfilled
4) UCCGUCUCAGUUACUUUAUAGCC	Not fulfilled
5) UUAAUGCUAAUCGUGAUAGGGG	Not fulfilled
6) UCAAGAGCAAUAACGAAAAAUGU	Not fulfilled
7) CUUUCAGUCGGAUGUUUACAGC	Not fulfilled

----------
Test system: PHOX2B
assay-procedure: 3' UTR reporter interaction score (median-centred robust z-score of log2 firefly/Renilla activity); higher = less repression of the 3' UTR reporter
test-parameters: HEK293T; 48 h
Measured 3' UTR reporter interaction score, listed per entry for reference.
metric: 3' UTR reporter interaction score

1. AGGGUGUUUCUCUCAUCUCU	2.27
2. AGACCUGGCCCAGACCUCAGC	-0.381
3. UAUGCAUUGUAUUUUUAGGUCC	-2.52
4. UAAUACUGCCGGGUAAUGAUGG	-0.44
5. AAUCAUACACGGUUGACCUAUU	-0.199
6. GUGCAUUGUAGUUGCAUUG	1.4
7. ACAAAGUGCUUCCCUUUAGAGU	1.29
8. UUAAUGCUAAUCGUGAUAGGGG	0.553
9. UUCAAGUAAUUCAGGAUAGGUU	0.967
10. ACUUUAACAUGGAAGUGCUUUCU	-0.178
11. AAAGUGCCUCCUUUUAGAGUGU	-1.07
12. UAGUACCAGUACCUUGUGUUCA	-0.362
13. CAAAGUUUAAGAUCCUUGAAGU	-2.34
14. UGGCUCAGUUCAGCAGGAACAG	0.0378
15. AGGUUACCCGAGCAACUUUGCA	2.07
16. AGUGGUUUUACCCUAUGGUAG	1.56
17. UAAAGUAAAUAUGCACCAAAA	1.69
18. AAAGCGCUUCCCUUCAGAGUGU	1.41
19. UUGCAUAUGUAGGAUGUCCCAU	-1.16
20. UCAGUGCACUACAGAACUUUGU	-0.0276
21. AAAGUGCUGUUCGUGCAGGUAG	1.63
22. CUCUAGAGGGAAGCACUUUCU	-1.07
23. AAUGGCGCCACUAGGGUUGUGCA	1.04
24. UAUGGCUUUUCAUUCCUAUGUG	0.949
25. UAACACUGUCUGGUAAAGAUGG	-0.774
26. UCUGGCUCCGUGUCUUCACUCC	1.22
27. CAAAGCGCUUCCCUUUGGAGC	0.957
28. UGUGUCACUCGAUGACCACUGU	0.976
29. AAACCGUUACCAUUACUGAGUUU	-1.13
30. AACCAGCACCCCAACUUUGGAC	-0.923
31. GAGUGCCUUCUUUUGGAGCGU	-3.88
32. GUGUCUGCUUCCUGUGGGA	-0.344
33. UAAAGCUAGAUAACCGAAAGU	0.965
